Test system: 598228-144-R-J1-PDC complex spheroid viability;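 note: spheroids exposed to the agents for one week before reading; percent of vehicle DMSO control viability so 100% = untreated growth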
experimental details: Anticancer human tumor 598228-144-R-J1-PDC patient-derived serous endometrial adenocarcinoma cell line growth inhibition [GQUAD]
particulars: second compound 1 µM; first compound 1 µM; hits give low values
property label: viability, T/C (%)
Response body: numeric value in %, unit text excluded.

# count of solved cases: 10
>>> measured_result("O=C(NO)c1cnc(N2CCN(S(=O)(=O)c3ccc4ccccc4c3)CC2)nc1 + Cc1[nH]c2ccc(F)cc2c1-c1nc2c3cccnc3c3ncccc3c2[nH]1")
1
>>> measured_result("CC1COCCN1c1cc(C2(S(C)(=N)=O)CC2)nc(-c2ccnc3[nH]ccc23)n1 (configuration not stated) + Cc1cnc(CNC(=O)c2c(=O)c3ccc(N4CCCN(C)CC4)nc3n3c2sc2ccccc23)cn1")
60.9
>>> measured_result("C#Cc1c(F)ccc2cc(O)cc(-c3ncc4c(N5CC6CCC(C5)N6)nc(OCC56CCCN5CC(F)C6)nc4c3F)c12 (configuration not stated) + Cc1cnc(CNC(=O)c2c(=O)c3ccc(N4CCCN(C)CC4)nc3n3c2sc2ccccc23)cn1")
58.9
>>> measured_result("CC(C)(O)C1CCC(Nc2ccc3ncc(-c4cccc(C(F)(F)F)c4)n3n2)CC1 (configuration not stated) + Cc1[nH]c2ccc(F)cc2c1-c1nc2c3cccnc3c3ncccc3c2[nH]1")
55.8
>>> measured_result("COc1cc(C2c3cc4c(cc3C(OC3OC5COC(C)OC5C(O)C3O)C3COC(=O)C23)OCO4)cc(OC)c1O (configuration not stated) + Cc1cnc(CNC(=O)c2c(=O)c3ccc(N4CCCN(C)CC4)nc3n3c2sc2ccccc23)cn1")
72
>>> measured_result("C=CCn1c(=O)c2cnc(Nc3ccc(N4CCN(C)CC4)cc3)nc2n1-c1cccc(C(C)(C)O)n1 + Cc1cnc(CNC(=O)c2c(=O)c3ccc(N4CCCN(C)CC4)nc3n3c2sc2ccccc23)cn1")
60.3
>>> measured_result("COc1ccc([C@@H](O)c2cc(-c3ncnc4cc(N5CCOCC5)ccc34)c(F)cc2Cl)nn1 + Cc1[nH]c2ccc(F)cc2c1-c1nc2c3cccnc3c3ncccc3c2[nH]1")
36.9
>>> measured_result("Cc1cccc(N(C)C(=O)C2C(O)CCN2c2nc(C)cc(C(F)(F)F)c2C#N)c1 (configuration not stated) + CN(C)c1ccc(Nc2c3ccc(NC(=O)CCN4CCCC4)cc3nc3cc(NC(=O)CCN4CCCC4)ccc23)cc1")
101
>>> measured_result("C=CC(=O)N1CCN(c2nc(=O)n(-c3c(C)ccnc3C(C)C)c3nc(-c4c(O)cccc4F)c(F)cc23)C(C)C1 (configuration not stated) + Cc1[nH]c2ccc(F)cc2c1-c1nc2c3cccnc3c3ncccc3c2[nH]1")
75.6
>>> measured_result("O=c1[nH]cc(F)c(=O)[nH]1 + Cc1cnc(CNC(=O)c2c(=O)c3ccc(N4CCCN(C)CC4)nc3n3c2sc2ccccc23)cn1")
68.4

Value wanted: viability, T/C (598228-144-R-J1-PDC complex spheroid viability) of entry CCCS(=O)(=O)Nc1ccc(F)c(C(=O)c2c[nH]c3ncc(-c4ccc(Cl)cc4)cc23)c1F + Cc1cnc(CNC(=O)c2c(=O)c3ccc(N4CCCN(C)CC4)nc3n3c2sc2ccccc23)cn1 65.6

Value wanted: viability, T/C (598228-144-R-J1-PDC complex spheroid viability) of entry CC1COCCN1c1cc(C2(O)CC3CCC(C2)O3)c2cnn(-c3ccn[nH]3)c2n1 (configuration not stated) + CN(C)c1ccc(Nc2c3ccc(NC(=O)CCN4CCCC4)cc3nc3cc(NC(=O)CCN4CCCC4)ccc23)cc1 35.6

Value wanted: viability, T/C (598228-144-R-J1-PDC complex spheroid viability) of entry COc1ncnc(C2CC2)c1-c1ncc2cnn(Cc3ccc(-c4nc(C(F)(F)F)cn4C(C)C)cc3)c2n1 + Cc1cnc(CNC(=O)c2c(=O)c3ccc(N4CCCN(C)CC4)nc3n3c2sc2ccccc23)cn1 62.8

Value wanted: viability, T/C (598228-144-R-J1-PDC complex spheroid viability) of entry COc1cccc2c1C(=O)c1c(O)c3c(c(O)c1C2=O)CC(O)(C(=O)CO)CC3OC1CC(N)C(O)C(C)O1 (configuration not stated) + CN(C)c1ccc(Nc2c3ccc(NC(=O)CCN4CCCC4)cc3nc3cc(NC(=O)CCN4CCCC4)ccc23)cc1 51.9

Value wanted: viability, T/C (598228-144-R-J1-PDC complex spheroid viability) of entry C=CCn1c(=O)c2cnc(Nc3ccc(N4CCN(C)CC4)cc3)nc2n1-c1cccc(C(C)(C)O)n1 + CN(C)c1ccc(Nc2c3ccc(NC(=O)CCN4CCCC4)cc3nc3cc(NC(=O)CCN4CCCC4)ccc23)cc1 50.8

Value wanted: viability, T/C (598228-144-R-J1-PDC complex spheroid viability) of entry CC1COCCN1c1cc(C2(O)CC3CCC(C2)O3)c2cnn(-c3ccn[nH]3)c2n1 (configuration not stated) + Cc1[nH]c2ccc(F)cc2c1-c1nc2c3cccnc3c3ncccc3c2[nH]1 27.4

Value wanted: viability, T/C (598228-144-R-J1-PDC complex spheroid viability) of entry O=C(c1cc(Cc2n[nH]c(=O)c3ccccc23)ccc1F)N1CCN(C(=O)C2CC2)CC1 + CN(C)c1ccc(Nc2c3ccc(NC(=O)CCN4CCCC4)cc3nc3cc(NC(=O)CCN4CCCC4)ccc23)cc1 87.5
